Reference for the values: paper PMC12864922

- Target entity: TDP-43 (Homo sapiens, UniProt Q13148 1-414)
- Sequence (Q13148 whole entry): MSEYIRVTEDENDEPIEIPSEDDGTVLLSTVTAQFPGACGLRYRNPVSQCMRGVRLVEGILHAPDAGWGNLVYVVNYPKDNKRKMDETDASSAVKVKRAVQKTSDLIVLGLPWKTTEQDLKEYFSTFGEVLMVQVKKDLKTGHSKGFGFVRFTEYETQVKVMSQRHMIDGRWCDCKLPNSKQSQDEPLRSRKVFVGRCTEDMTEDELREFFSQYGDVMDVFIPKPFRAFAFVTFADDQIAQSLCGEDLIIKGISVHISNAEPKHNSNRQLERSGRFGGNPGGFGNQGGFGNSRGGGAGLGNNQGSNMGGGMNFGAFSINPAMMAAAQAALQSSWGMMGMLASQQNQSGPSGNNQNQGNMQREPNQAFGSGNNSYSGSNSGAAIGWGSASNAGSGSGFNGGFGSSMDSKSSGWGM
- Test name: RNA Bind-n-Seq with designed 260-mer pool; 25 mM Tris-HCl, 150 mM KCl, 3 mM MgCl2, BSA (printed 500 mg/mL), 20 units/mL SUPERase IN; pH not stated; 500 nM RNA pool, 1 h, 4 C; TDP-43 5, 50, 500 nM; high values mean tight binding
- Stated conditions: protein: recombinant; tags: SBP (GST cleaved off with PreScission; pGEX-GST-SBP)
In all, about 9,900 sequences were measured (“r (bound/input frequency ratio)”: median about 0.7, highest 2% from about 6.5 on). The full list was thinned out, with the highest values kept by preference.
Measure: binding signal

{"Binder": "ENSMUSG00000029028.19|Lrrc47 (ssRNA) RNA: GGGAGUUCUACAGUCCGACGAUCGCUUCGAUAUCCGCAUGCUAUGUAGGUGUGGGUGUGCUGUAGGUGUCUGUGUGGGUGUGGGUGUGCUGUAGGUGUCUGUGUGGGUGUGGGUGUGCUAUAGGUAUCUGUGGGUGUGCUGUAGGUGUCUGUGUGGGUGUGCUGUAGGUGUCUGUGUAGGUGUGGGUGUGCUGUAGGUGUCUGUGUGGGUGUGCUAGGUGUCUGUAUAGGUGUGGGUGUGCUGUAGAUGUCUGUGUAGGUAUGGGUGUGCUGUAGAUCUUUGUAGGUGUAGGUAUGCUGUAGGCUCUUGCGGUCGCACUAGUGUGGAAUUCUCGGGUGUCAAGG", "binding signal": "6.81 R (bound/input frequency ratio)"}

Here's the next entry for you.
Input: Return reported binding signal. Input binder: ENSMUSG00000029028.68|Lrrc47 (ssRNA) RNA: GGGAGUUCUACAGUCCGACGAUCGCUUCGAUAUCCGCAUGCUAAGGUGUGGAUAUGCUGUAGGUAUCUGGGUGUGCUGUAGGUGUCUGUGUGGGUGUGGGUGUGCUGUGGGUGUCUGUGUGGGUGUGCUGUAGGUGUCUGUAGGUGUGGGUAUGCUGCAGGUGUGGGUGUGCUGUAGAUCUCUAUAGGUGUGGGUGUGCUGUAGGGGUCUGUGUGGGUAUAGGUGUGGGUGUGCUGUAGAUUCUGUGUAACUGGUUCUUUGCUGUUUCUCUGGGUGUUUUAAGGUGUCUGCUUUUGUCCAGGUCUCUUGCGGUCGCACUAGUGUGGAAUUCUCGGGUGUCAAGG
Output: 7.46 R (bound/input frequency ratio)
